B1: glmS ribozyme (parent)
chain: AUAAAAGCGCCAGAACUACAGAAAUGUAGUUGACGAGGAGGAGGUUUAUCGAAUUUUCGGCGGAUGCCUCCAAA

Variants of: B1
protocol-notes: self-cleavage kobs at 640 uM GlcN6P; higher = faster cleavage; RNA array
condition-parameters: with glucosamine-6-phosphate
Fewer inactive variants are shown than the library holds.
parameter-measured: self-cleavage kobs at 640 uM GlcN6P (s⁻¹)

[[record]]
mutation = "G29C U56A C67G"
parameter_measured = "self-cleavage kobs at 640 uM GlcN6P"
comparison_operator = "="
value = "4.47e-05"

[[record]]
mutation = "G66A C67A"
parameter_measured = "self-cleavage kobs at 640 uM GlcN6P"
comparison_operator = "="
value = 0.00222

[[record]]
mutation = "G41U G59U G63U"
parameter_measured = "self-cleavage kobs at 640 uM GlcN6P"
comparison_operator = "<"
value = "1e-05"

[[record]]
mutation = "C10U U49C"
parameter_measured = "self-cleavage kobs at 640 uM GlcN6P"
comparison_operator = "<"
value = "1e-05"

[[record]]
mutation = "G40C G59U"
parameter_measured = "self-cleavage kobs at 640 uM GlcN6P"
comparison_operator = "<"
value = "1e-05"

[[record]]
mutation = "A33C A42U"
parameter_measured = "self-cleavage kobs at 640 uM GlcN6P"
comparison_operator = "<"
value = "1e-05"

[[record]]
mutation = "U47C U65A"
parameter_measured = "self-cleavage kobs at 640 uM GlcN6P"
comparison_operator = "="
value = 0.000443

[[record]]
mutation = "G7C A53C"
parameter_measured = "self-cleavage kobs at 640 uM GlcN6P"
comparison_operator = "<"
value = "1e-05"

[[record]]
mutation = "A14U U55C"
parameter_measured = "self-cleavage kobs at 640 uM GlcN6P"
comparison_operator = "="
value = 0.00161

[[record]]
mutation = "A12C A14C"
parameter_measured = "self-cleavage kobs at 640 uM GlcN6P"
comparison_operator = "="
value = "7.98e-05"

[[record]]
mutation = "A52U C70U"
parameter_measured = "self-cleavage kobs at 640 uM GlcN6P"
comparison_operator = "="
value = 0.000122

[[record]]
mutation = "C8G U65C"
parameter_measured = "self-cleavage kobs at 640 uM GlcN6P"
comparison_operator = "<"
value = "1e-05"

[[record]]
mutation = "C11U A14C"
parameter_measured = "self-cleavage kobs at 640 uM GlcN6P"
comparison_operator = "="
value = 0.000151

[[record]]
mutation = "A14G G32U"
parameter_measured = "self-cleavage kobs at 640 uM GlcN6P"
comparison_operator = "="
value = 0.000476

[[record]]
mutation = "G41A A52G G59A"
parameter_measured = "self-cleavage kobs at 640 uM GlcN6P"
comparison_operator = "<"
value = "1e-05"

[[record]]
mutation = "A33U U65A"
parameter_measured = "self-cleavage kobs at 640 uM GlcN6P"
comparison_operator = "<"
value = "1e-05"

[[record]]
mutation = "G41C C70U"
parameter_measured = "self-cleavage kobs at 640 uM GlcN6P"
comparison_operator = "="
value = 0.000173

[[record]]
mutation = "C11G A15C"
parameter_measured = "self-cleavage kobs at 640 uM GlcN6P"
comparison_operator = "<"
value = "1e-05"

[[record]]
mutation = "C67U C70U"
parameter_measured = "self-cleavage kobs at 640 uM GlcN6P"
comparison_operator = "="
value = 0.000132

[[record]]
mutation = "U56A C70G"
parameter_measured = "self-cleavage kobs at 640 uM GlcN6P"
comparison_operator = "="
value = 0.000105

[[record]]
mutation = "C8U C16G G51U"
parameter_measured = "self-cleavage kobs at 640 uM GlcN6P"
comparison_operator = "<"
value = "1e-05"

[[record]]
mutation = "U47A C58G"
parameter_measured = "self-cleavage kobs at 640 uM GlcN6P"
comparison_operator = "="
value = "4.54e-05"

[[record]]
mutation = "A12C G32C G62A G63U"
parameter_measured = "self-cleavage kobs at 640 uM GlcN6P"
comparison_operator = "<"
value = "1e-05"

[[record]]
mutation = "G29A G40C U55A U56G C67U"
parameter_measured = "self-cleavage kobs at 640 uM GlcN6P"
comparison_operator = "<"
value = "1e-05"

[[record]]
mutation = "G7U C8A A33U G43A U55A"
parameter_measured = "self-cleavage kobs at 640 uM GlcN6P"
comparison_operator = "<"
value = "1e-05"

[[record]]
mutation = "C8A A53U U55G"
parameter_measured = "self-cleavage kobs at 640 uM GlcN6P"
comparison_operator = "<"
value = "1e-05"

[[record]]
mutation = "G29C A33C C34G G38C A52G"
parameter_measured = "self-cleavage kobs at 640 uM GlcN6P"
comparison_operator = "<"
value = "1e-05"

[[record]]
mutation = "U30A A48C C58A G60A"
parameter_measured = "self-cleavage kobs at 640 uM GlcN6P"
comparison_operator = "<"
value = "1e-05"

[[record]]
mutation = "A48C U56C"
parameter_measured = "self-cleavage kobs at 640 uM GlcN6P"
comparison_operator = "<"
value = "1e-05"

[[record]]
mutation = "C10G G62A"
parameter_measured = "self-cleavage kobs at 640 uM GlcN6P"
comparison_operator = "<"
value = "1e-05"

[[record]]
mutation = "A39G C67G C68G"
parameter_measured = "self-cleavage kobs at 640 uM GlcN6P"
comparison_operator = "="
value = "9.65e-05"

[[record]]
mutation = "U45G U47G"
parameter_measured = "self-cleavage kobs at 640 uM GlcN6P"
comparison_operator = "="
value = 0.00314

[[record]]
mutation = "A36C U69G"
parameter_measured = "self-cleavage kobs at 640 uM GlcN6P"
comparison_operator = "="
value = 0.000391

[[record]]
mutation = "C16A C50G G62A A64U"
parameter_measured = "self-cleavage kobs at 640 uM GlcN6P"
comparison_operator = "="
value = "6.11e-05"

[[record]]
mutation = "G41A A42G"
parameter_measured = "self-cleavage kobs at 640 uM GlcN6P"
comparison_operator = "="
value = "8.45e-05"

[[record]]
mutation = "G37A G66C"
parameter_measured = "self-cleavage kobs at 640 uM GlcN6P"
comparison_operator = "="
value = 0.000117

[[record]]
mutation = "U56G G63C"
parameter_measured = "self-cleavage kobs at 640 uM GlcN6P"
comparison_operator = "<"
value = "1e-05"

[[record]]
mutation = "G29C U47A"
parameter_measured = "self-cleavage kobs at 640 uM GlcN6P"
comparison_operator = "="
value = 0.000293

[[record]]
mutation = "A6G U57A C68G"
parameter_measured = "self-cleavage kobs at 640 uM GlcN6P"
comparison_operator = "="
value = "7.18e-05"

[[record]]
mutation = "G9A U65C"
parameter_measured = "self-cleavage kobs at 640 uM GlcN6P"
comparison_operator = "<"
value = "1e-05"

[[record]]
mutation = "A14U A33C U57C"
parameter_measured = "self-cleavage kobs at 640 uM GlcN6P"
comparison_operator = "="
value = 0.0103

[[record]]
mutation = "C8A G13A G37U G59C C68G"
parameter_measured = "self-cleavage kobs at 640 uM GlcN6P"
comparison_operator = "="
value = 0.000781

[[record]]
mutation = "G13C A36U"
parameter_measured = "self-cleavage kobs at 640 uM GlcN6P"
comparison_operator = "<"
value = "1e-05"

[[record]]
mutation = "U45G C71U"
parameter_measured = "self-cleavage kobs at 640 uM GlcN6P"
comparison_operator = "="
value = 0.00152

[[record]]
mutation = "A12C U46A G51U U54G G60A C61A C70A"
parameter_measured = "self-cleavage kobs at 640 uM GlcN6P"
comparison_operator = "<"
value = "1e-05"

[[record]]
mutation = "U49A G62A"
parameter_measured = "self-cleavage kobs at 640 uM GlcN6P"
comparison_operator = "<"
value = "1e-05"

